// data source = paper PMC6044410

- assayed.target: GST-human TopBP1 BRCT5 Y678A (human, UniProt Q92547 641-746, Y678A)
- Sequence (Q92547 641-746 Y678A): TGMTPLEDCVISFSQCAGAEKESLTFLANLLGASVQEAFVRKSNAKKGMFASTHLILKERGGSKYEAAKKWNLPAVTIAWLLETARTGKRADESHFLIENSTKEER
- method.notes: fluorescence polarisation
Square brackets hold non-standard residues; d marks the D form. * marks the point of attachment. FITC = O=C1OC2(c3ccc(O)cc3Oc3cc(O)ccc32)c2ccc(NC(=S)*)cc21; pS = N[C@@H](COP(=O)(O)O)C(=O)O
readout.name: Kd (µM)
All answers are understood in µM, so give the number only.

Q: Consider the binder {FITC}-DTDFVPP[pS]PEEII-NH2 [FITC-labelled BLM pSer304 peptide (FITC-DTDFVPPpSPEEII-NH2)] and give its recorded Kd.
A: 18
